Numbers sourced from paper PMC2792720.

- Target or test system: TSPO (Mus musculus)
- Construct: mitochondrial-enriched membranes from DBT cells were prepared by lysing cells with ice-cold homogenization buffer; endogenous in cells
- Assay remarks: Filtration radioligand binding assay, [^3H]-PK 11195 binding to DBT cell homogenates
- Stated conditions: DBT cell homogenates; read-out: Ki, competition for [^3H]-PK 11195 binding
- Procedure: Enriched membranes were prepared according to [28]. […] Five ml of Ecoscint XR scintillation fluid (National Diagnostics, Atlanta, GA) was added, followed by 10 sec vortexing and ∼18 hrs incubation at room temperature prior to determining the radioactivity with a scintillation counter (PerkinElmer, Boston MA). Data are expressed as n = number of determinations (three per independent experiment). […]
Value type: Ki (pM)
Kindly provide the numeric value in pM only, without the unit symbol.

What value of Ki has been recorded for this entry: COc1ccc(OC)c(CN(C(C)=O)c2cc(F)ccc2Oc2ccccc2)c1 [DAA1106] 200

---

- Target or test system: TSPO (Mus musculus)
- Construct: mitochondrial-enriched membranes from DBT cells were prepared by lysing cells with ice-cold homogenization buffer; endogenous in cells
- Assay remarks: Filtration radioligand binding assay, [^3H]-PK 11195 binding to DBT cell homogenates
- Stated conditions: DBT cell homogenates; read-out: EC50, competition for [^3H]-PK 11195 binding
Value type: pEC50
Scale explanation: pEC50 corresponds to minus log10 of a concentration expressed in moles per litre.

Dear colleague, I am looking for the recorded pEC50 of the following molecule: CCC(C)N(C)C(=O)c1cc2ccccc2c(-c2ccccc2Cl)n1 (stereo not shown) [PK 11195] 7.03
